Hey, just so you know, these numbers are from patent US20040259952A1.

Procedure Details: Multiple dose study (twice daily for ten days): plasma pharmacokinetics of cromolyn and SNAC
Condition Info: male, human, in vivo

>  <Molecule>
O=C([O-])CCCCCCCNC(=O)c1ccccc1O.[Na+] [SNAC]

>  <half-life>
~25 min

$$$$
